# maps each entry to its IC50
# tested_on: BEC 1 potassium channel (Homo sapiens, UniProt Q9ULD8)
# Sequence (Q9ULD8 1-1083): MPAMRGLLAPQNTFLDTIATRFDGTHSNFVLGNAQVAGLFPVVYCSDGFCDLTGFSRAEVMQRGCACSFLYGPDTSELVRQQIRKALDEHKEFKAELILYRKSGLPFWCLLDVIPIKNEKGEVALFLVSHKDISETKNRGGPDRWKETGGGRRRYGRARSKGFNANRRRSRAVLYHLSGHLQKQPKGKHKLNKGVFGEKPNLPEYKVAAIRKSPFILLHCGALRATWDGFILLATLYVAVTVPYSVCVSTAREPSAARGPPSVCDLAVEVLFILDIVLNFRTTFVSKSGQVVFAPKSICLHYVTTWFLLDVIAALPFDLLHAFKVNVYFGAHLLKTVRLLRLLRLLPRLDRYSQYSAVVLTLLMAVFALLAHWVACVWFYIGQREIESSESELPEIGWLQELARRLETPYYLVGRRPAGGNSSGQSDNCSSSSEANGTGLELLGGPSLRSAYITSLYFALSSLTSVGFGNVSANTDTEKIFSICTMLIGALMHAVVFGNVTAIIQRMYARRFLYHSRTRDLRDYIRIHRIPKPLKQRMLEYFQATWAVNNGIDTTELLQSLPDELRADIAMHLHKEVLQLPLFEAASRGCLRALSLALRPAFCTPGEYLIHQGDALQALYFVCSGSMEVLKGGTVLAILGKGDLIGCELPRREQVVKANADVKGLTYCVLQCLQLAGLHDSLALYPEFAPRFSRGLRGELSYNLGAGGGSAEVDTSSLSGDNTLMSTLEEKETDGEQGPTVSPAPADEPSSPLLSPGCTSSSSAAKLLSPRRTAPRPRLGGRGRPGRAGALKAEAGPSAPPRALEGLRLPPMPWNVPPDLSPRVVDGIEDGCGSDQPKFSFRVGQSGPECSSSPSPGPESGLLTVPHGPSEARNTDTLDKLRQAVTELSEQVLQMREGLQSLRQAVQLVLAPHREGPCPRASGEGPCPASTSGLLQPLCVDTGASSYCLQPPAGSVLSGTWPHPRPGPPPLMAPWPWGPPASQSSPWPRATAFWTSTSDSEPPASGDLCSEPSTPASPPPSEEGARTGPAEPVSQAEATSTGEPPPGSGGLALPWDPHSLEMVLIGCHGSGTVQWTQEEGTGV
# assay_notes: BEC 1 inhibitory activity using released amount of 86Rb ions from BEC 1-expressing cells
# particulars: 86Rb ion release, BEC 1-stably expressing CHO (dhfr-deficient) cell, 100 mM KCl stimulation; read-out: BEC1 IC50
The answer consists of two parts: a number and, after it, its unit.

Solved cases (3 shown):
molecule: Fc1ccc(Nc2nc(NCc3cccs3)nc(Nc3ccc(F)cc3)n2)cc1 [compound 31]
IC50: 0.49 µM
//
molecule: CCCCCNc1nc(Nc2ccccc2)nc(Nc2ccccc2)n1 [compound 14]
IC50: 0.39 µM
//
molecule: Nc1cccc(CNc2nc(Nc3ccccc3)nc(Nc3ccc(F)cc3)n2)n1 [Example 819]
IC50: 1.4 µM

For the molecule [O-][n+]1ccc(CCNc2nc(Nc3ccccc3)nc(Nc3ccccc3)n2)cc1 [Example 740] , what IC50 is on record?
4.9 µM

For the molecule COCCNc1nc(Nc2ccccc2)nc(Nc2ccccc2)n1 [compound 17] , what IC50 is on record?
0.29 µM

For the molecule CC(C)Nc1nc(Nc2ccc3c(c2)OCO3)nc(Nc2ccc3c(c2)OCO3)n1 [compound 41] , what IC50 is on record?
0.4 µM

====

# maps each entry to its melting point
Structures can show the parent of a compound that is named as a salt.

For the compound COCCNc1nc(Nc2ccccc2)nc(Nc2ccc(OC)cc2)n1 (as salt: HCl) , what melting point is on record?
169 to 170 °C

For the compound Nc1cc(CNc2nc(Nc3ccccc3)nc(Nc3ccc(F)cc3)n2)ccn1 (as salt: salt) (hydrate or solvate) , what melting point is on record?
164 to 199 °C

====

# tested_on: UniProtKB Q9ULD8
# assay_notes: BEC 1 inhibitory activity using released amount of 86Rb ions from BEC 1-expressing cells
# particulars: 86Rb ion release, BEC 1-stably expressing CHO (dhfr-deficient) cell, 100 mM KCl stimulation; read-out: BEC1 IC50
# maps each entry to its IC50
The reply should be a number in µM, with the unit left off.

Solved cases (2 shown):
compound: CCONc1nc(Nc2ccccc2)nc(Nc2ccc(F)cc2)n1
IC50 / µM: 4.7
//
compound: CCN(CC)CCCC(C)Nc1nc(Nc2ccccc2)nc(Nc2ccc(F)cc2)n1 (stereo not drawn)
IC50 / µM: 3.1

Here is another compound to look at.
For the compound Fc1ccc(Nc2nc(NCc3ccccc3)nc(Nc3ccc(F)cc3)n2)cc1 , what IC50 is on record?
0.39

====

# tested_on: BEC 1 potassium channel (Homo sapiens)
# assay_notes: BEC 1 inhibitory activity using released amount of 86Rb ions from BEC 1-expressing cells
# particulars: 86Rb ion release, BEC 1-stably expressing CHO (dhfr-deficient) cell, 100 mM KCl stimulation; read-out: BEC1 IC50
# From the text: In general, the potassium channel can pass Rb^+ ion similar to K^+ ion, so that the channel activity can be measured using release of a radioisotope ^86Rb^+ as a marker. […] As a result, the intracellular ^86Rb^+ is released into the extracellular part, thus radioactivity of the extracellular solution can be used as a marker of the channel activity. […] The Cerenkov radioactivity of the extracellular medium and cell lysate was respectively measured, and their total was used as the total radioactivity. […]
measured_endpoint: pIC50
The read-out pIC50 is expressed as -log10 of concentration in moles per litre.

Solved cases (5 shown):
smiles_representation: COCCNc1nc(Nc2ccccc2)nc(Nc2ccc(OC)cc2)n1
pIC50: 6.38

smiles_representation: OCCOCCNc1nc(Nc2ccc(F)cc2)nc(Nc2ccc(F)cc2)n1
pIC50: 6.74

smiles_representation: COCCNc1nc(Nc2ccccc2)nc(Nc2ccc(F)cc2)n1
pIC50: 6.60

smiles_representation: OCCCCCNc1nc(Nc2ccccc2)nc(Nc2ccccc2)n1
pIC50: 6.72

smiles_representation: Fc1ccc(Nc2nc(NCc3ccco3)nc(Nc3ccc(F)cc3)n2)cc1
pIC50: 7.14

For the molecule Fc1ccc(Nc2nc(NCc3ccnc(F)c3)nc(Nc3ccccc3)n2)cc1 , what pIC50 is on record?
7.07

For the molecule Nc1cc(CNc2nc(Nc3ccccc3)nc(Nc3ccc(F)cc3)n2)ccn1 , what pIC50 is on record?
5.44

====

# maps each entry to its melting point
Structures can show the parent of a compound that is named as a salt.

molecule: Fc1ccc(Nc2nc(NCc3ccnc(F)c3)nc(Nc3ccccc3)n2)cc1 (as salt: HCl)
melting point: 175 to 177 °C

For the molecule CSCCCNc1nc(Nc2ccccc2)nc(Nc2ccccc2)n1 (as salt: HCl) , what melting point is on record?
162 to 163 °C

For the molecule CCONc1nc(Nc2ccccc2)nc(Nc2ccc(F)cc2)n1 (as salt: HCl) (hydrate or solvate) , what melting point is on record?
141 to 143 °C

For the molecule Nc1cccc(CNc2nc(Nc3ccccc3)nc(Nc3ccc(F)cc3)n2)n1 (hydrate or solvate) , what melting point is on record?
164 to 165 °C

For the molecule OCCCCCNc1nc(Nc2ccc(F)cc2)nc(Nc2ccc(F)cc2)n1 (as salt: HCl) , what melting point is on record?
162 to 163 °C

For the molecule CC(C)Nc1nc(Nc2ccccc2)nc(Nc2ccc(C(F)(F)F)cc2)n1 (as salt: HCl) , what melting point is on record?
198 to 200 °C

For the molecule OCCCCNc1nc(Nc2ccccc2)nc(Nc2ccc(F)cc2)n1 (as salt: HCl) , what melting point is on record?
185 to 186 °C

// data source = patent US7375222B2
